Where do the numbers come from? From PubChem BioAssay AID1159506.

assay: Identification of proteins required for the processing of the EWS-FLI1 nascent transcript;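 further: robust z of luciferase light less the median z of siRNAs with the same seed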
conditionContext: TC32 Ewing sarcoma NR0B1-luc vs CMV-luc (EWS-FLI1 target promoter against control promoter), 48 h; screened at 20 nM (by protocol)
In all, about 59,000 sequences were measured (the read-out: median about -0.00055, lowest 2% from about -2 on). The entries come from a sample that favours the lowest values as a whole.
Criterion: seed-corrected z-score strictly less than 0.2. Met: Yes. Not met: No.

*Q* Find out if reported seed-corrected z-score for AAAGCGACACUUAUCACCC against WRB is less than 0.2
*A* No

*Q* Consider the sequence UUUUGUUGUGAGCUGAUGC against SF3B4 . Is its seed-corrected z-score strictly less than 0.2?
*A* Yes

*Q* Please check: seed-corrected z-score for UUCGGUCUCAGGACUAUUG against KAT6A , strictly under 0.2 or not?
*A* No

*Q* Is seed-corrected z-score of UAAGUUGCGAGCGUAGUGG against GAL3ST4 strictly below 0.2?
*A* Yes

*Q* hey, is seed-corrected z-score for UAUACAAUGAGGCAGCUGA against ISCA1P1 lower than 0.2 or not?
*A* No

*Q* Field: below-cutoff. Rule: recorded seed-corrected z-score strictly less than 0.2. Subject: UCCUGGAUUGGGAAGGUGC against C9orf172
*A* Yes

*Q* Does this sequence meet the criterion seed-corrected z-score < 0.2? AUCACUCUCACAUACAUGG against RCAN1
*A* Yes

*Q* Strictly below 0.2 in seed-corrected z-score? UCCAGUUGUACUUCUUGCC against GFOD1
*A* Yes

*Q* State whether 0.2 exceeds seed-corrected z-score recorded for UUUCUGUAGGCUUUUCUGG against DPCR1 .
*A* Yes

*Q* Lab log: compare recorded seed-corrected z-score with 0.2; is it strictly lower for GUGUGCAUCAGAUGCUCUG against NUTM2F ?
*A* No

*Q* For this sequence, is seed-corrected z-score lower than 0.2? UUUAAUGUAACUCCCACUU against DLGAP2
*A* No

*Q* Is 0.2 strictly greater than the sequence's reported seed-corrected z-score? sequence: UAUUUGACUAGGCGACUUC against NET1
*A* Yes

*Q* Criterion: seed-corrected z-score strictly below 0.2. Is it met by UUGUCUUUCCGGCUAAAGC against ZFP64 ?
*A* Yes

*Q* Strictly below 0.2 in seed-corrected z-score? UAAAGGCAUAGUUUCCCUG against RGS7BP
*A* Yes

*Q* Check if seed-corrected z-score falls below 0.2 for UUUCAGAUAAGCACGAAGC against EIF3M .
*A* No

*Q* Is it true that seed-corrected z-score reported for AUUGCUCUGAAGUGAAUUC against LMO4 is less than 0.2?
*A* Yes

*Q* Bench note: check whether UUUGUUGACUGCUUGACUG against METAP1D shows seed-corrected z-score below 0.2
*A* No

*Q* Please indicate whether the reported seed-corrected z-score of AUCCGCAUCAGUAACAUUG against CASQ1 is strictly below 0.2.
*A* Yes

*Q* Input UUCUCGUUCUGUUAAGUUC against CCDC144B ; condition: seed-corrected z-score strictly below 0.2. Does it hold?
*A* No

*Q* Criterion: seed-corrected z-score strictly below 0.2. Is it met by UUCGUUCCAACAUAGGCUG against AGBL1 ?
*A* Yes

*Q* A record lists UACUCUGUUAGGAAGACCG against TECR . Is its seed-corrected z-score below 0.2?
*A* No

*Q* Regarding AGCUGUAGCACCAUCAACG against OR7G3 , kindly confirm whether its seed-corrected z-score is beneath 0.2.
*A* Yes

*Q* # strict comparison: is reported seed-corrected z-score < 0.2? input = UAUUCGUACUCAAACGUGC against SFPQ
*A* Yes

*Q* Record UGAGGAUAAAGCGAAGAGC against VARS2 : is its seed-corrected z-score strictly below 0.2?
*A* Yes

*Q* For this sequence, is seed-corrected z-score lower than 0.2? UGUGGAUGCGGCGAUGUUC against ZNF574
*A* No

*Q* Criterion: seed-corrected z-score strictly below 0.2. Is it met by UCUUGAUACAGAUUCCAUC against RFX8 ?
*A* No
